The reported measurements were obtained from PubChem BioAssay AID651650.

Target: UniProt:O14786
Sequence (O14786 whole entry, looked up): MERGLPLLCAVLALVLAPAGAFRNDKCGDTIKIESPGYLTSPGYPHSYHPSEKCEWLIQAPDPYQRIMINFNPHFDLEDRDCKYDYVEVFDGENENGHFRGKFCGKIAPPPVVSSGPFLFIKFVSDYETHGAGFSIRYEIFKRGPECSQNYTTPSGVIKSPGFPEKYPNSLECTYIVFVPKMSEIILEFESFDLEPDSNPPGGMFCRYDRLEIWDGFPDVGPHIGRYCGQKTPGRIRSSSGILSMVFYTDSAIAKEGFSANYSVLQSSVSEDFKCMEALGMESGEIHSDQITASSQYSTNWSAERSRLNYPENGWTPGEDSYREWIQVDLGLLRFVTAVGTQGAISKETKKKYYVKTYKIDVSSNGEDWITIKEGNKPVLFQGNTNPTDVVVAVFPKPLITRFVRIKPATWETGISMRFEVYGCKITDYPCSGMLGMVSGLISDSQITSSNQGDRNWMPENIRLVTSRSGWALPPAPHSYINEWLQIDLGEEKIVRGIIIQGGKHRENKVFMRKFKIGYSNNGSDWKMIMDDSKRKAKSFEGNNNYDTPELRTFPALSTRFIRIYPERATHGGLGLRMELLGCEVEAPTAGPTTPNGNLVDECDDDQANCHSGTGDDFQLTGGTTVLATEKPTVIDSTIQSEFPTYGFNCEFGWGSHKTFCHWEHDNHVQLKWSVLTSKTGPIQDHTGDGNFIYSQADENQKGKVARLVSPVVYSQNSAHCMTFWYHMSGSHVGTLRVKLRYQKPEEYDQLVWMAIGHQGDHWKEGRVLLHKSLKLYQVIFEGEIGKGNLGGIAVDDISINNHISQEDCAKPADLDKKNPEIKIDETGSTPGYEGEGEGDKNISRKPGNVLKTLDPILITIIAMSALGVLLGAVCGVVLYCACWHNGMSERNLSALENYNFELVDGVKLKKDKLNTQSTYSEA
Test: NRP-1 b1b2 CendR peptide binding inhibitors, dose response, biochemical, FP and AlphaScreen panel (AID 651650)
Details: NRP-1 b1b2 / RPARPAR peptide binding, FP or AlphaScreen; AlphaScreen, mean of runs
Calls of active or inactive are those of the source.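 The calls were made as follows: active = mean IC50 below 20 µM in each of the two panels, so potent in both; inactive = the rest.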
Metric: IC50

Compound	IC50
COc1ccccc1C(=O)NC(=O)CSc1nncn1C	> 100 µM (inactive)
O=C(Cc1ccc(F)cc1)N1CCN=C1SCc1ccc([N+](=O)[O-])cc1	> 100 µM (inactive)
Cn1c(SCc2nc3ccccc3s2)nnc1-c1cccs1	inactive
OCCCc1n[nH]c(=S)n1-c1ccccc1	> 100 µM (inactive)

Need IC50, item Cc1cccc(N(CC(=O)NC2CCCC2)C(=O)CS(=O)CC(=O)Nc2ccc3c(c2)OCO3)c1C (centres undefined)
> 100 µM (inactive)

Would you mind doing NCCCC[C@H]1CN=C(N)N1CCC12CC3CC(CC(C3)C1)C2 as well?
inactive

Consider next the compound NC(=O)C(c1ccc(Cl)cc1Cl)c1ncc(C(F)(F)F)cc1Cl (centres undefined) in the same way.
> 100 µM (inactive)

Next entry: Cc1ccccc1NC(=S)NC(=O)COc1ccccc1C
6.67 µM

Same lookup for Cc1ccc(C(=O)N2CCN(C34CC5CC(CC(C5)C3)C4)CC2)o1 , please.
inactive

Okay, and O=C(NNC(=O)C1CCN(c2ncccn2)CC1)c1ccc(F)cc1 ?
> 100 µM (inactive)

Then O=C(c1ccco1)N1CCN(C(=O)c2ccccc2OC(=O)C23CC4CC(CC(C4)C2)C3)CC1 ?
0.965 µM

Thanks! And COc1ccc(C(=O)N[C@H](C(=O)Nc2nc3c(s2)CCCC3)C(C)C)cc1 ?
> 100 µM (inactive)

How about this compound: Nc1ccc(C#Cc2c(-c3ccsc3)oc3ccc(N4CCOCC4)cc23)cc1
> 100 µM (inactive)

// repeat for CC(=O)C(C(c1ccccc1)N1CCCc2ccccc21)N1CCOCC1 (centres undefined) and report
inactive

Input CC1CCN(C(=O)c2[nH]cnc2C(=O)NCc2ccc(CNC(=O)OC(C)(C)C)cc2)CC1
12.9 µM

Another compound to check: O=C(Nc1ccc(F)cc1)c1cc(S(=O)(=O)Nc2ccc(F)cc2)cs1
> 100 µM (inactive)

Cool, now CC(=O)Nc1ccc(NC(=O)C2CC(=O)N(c3ccc(Cl)cc3)C2)cc1 (centres undefined)
17.9 µM

Next up: Cc1ccc(/C=N/Nc2nc3ccccc3[nH]2)s1
> 100 µM (inactive)

Now consider COc1ccc(/C=N/NC(=O)c2nn(-c3ccc(Cl)cc3)c(=O)c3c(N)scc23)cc1 and answer again.
> 100 µM (inactive)

Another compound to look at: N#Cc1ccc(COC(=O)c2cnc(Cl)c(Cl)c2)cc1
> 100 µM (inactive)

Proceed to Cc1ccc(CN(CC(=O)NC2CCCCC2)C(=O)c2csnn2)cc1
> 100 µM (inactive)

Next up: COc1ccc(C2CC(O)(c3ccccc3)Oc3cc(OC)ccc32)cc1 (centres undefined)
> 100 µM (inactive)

Same read-out for COc1ccc(Nc2nc(-c3cccnc3)nc3ccccc23)cn1 ?
inactive

How about this compound: Cc1ccc(C(=O)OCC(=O)c2ccc(Cl)s2)s1
> 100 µM (inactive)

And then CC(O)(c1cccnc1)c1nc(/C=C/c2ccccc2)cs1 (centres undefined) , what is it?
> 100 µM (inactive)
